Each record here notes measured growth.
tested on: OVCAR-5 ovarian; test: NCI-60 one-dose screen, 48 h (100 = growth as untreated, 0 = no growth, -100 = all killed); conditions: 10 µM
About 83,000 compounds went through this panel and 20% of them were active in at least one assay; those are over-represented in the sample as a whole.
readout.type: growth (%)

# compound, output.unit, reported
rows = [
    ("COc1cc([C@@H]2c3cc4c(cc3[C@H](O)[C@H]3COC(=O)[C@H]23)OCO4)cc(OC)c1OC", "%", 40),
    ("CCOc1ccc(I)cc1", "%", 94),
    ("NC(CSC(c1ccccc1)(c1ccccc1)c1ccccc1)C(=O)O (stereo not drawn)", "%", 41.8),
    ("O=C1C=C(Nc2ccc([N+](=O)[O-])cc2)c2ccccc2C1=O", "%", 86.9),
    ("N#CC(=Nc1cccc(F)c1)C1=C(O)c2ccccc2C1=O", "%", 103),
    ("Cc1cccc([N+](=O)[O-])c1Cl", "%", 96.4),
    ("CCCC(=O)c1cc(C)ccc1OC", "%", 101),
    ("COC(=O)c1[nH]c(=O)c(C#N)c(C(=O)OC)c1C(=O)c1ccccc1", "%", 113),
    ("COc1cc2c(cc1OC)[C@H](C(=O)O)[C@@H](c1ccc(OC(C)C)c(OC)c1)N(C)C2=O", "%", 98),
    ("CC1CCCC(CC(N)=O)CC1 (stereo not drawn)", "%", 104),
    ("COC(=O)c1cc(-c2ccc(Cl)c(Cl)c2)[nH]c(=O)c1C#N", "%", 99.2),
    ("CCOC(=O)CCCC(=O)OCC", "%", 101),
    ("CCN=c1cc2sc3cc(NCC)c(C)cc3nc-2cc1C", "%", 27.5),
    ("C#CC(C(C)C)N(CCO)CCCC (stereo not drawn)", "%", 92.4),
    ("CCNCCCCNCCCCNCCCCNCCCCNCC", "%", 108),
    ("O=C(O)[C@@H]1[C@H]2C[C@H]3c4[nH]c5ccccc5c4CCN3C[C@@H]2CC[C@@H]1O", "%", 105),
    ("COc1ccc2c(NCCCCCCCCNc3c4ccccc4nc4cc(OC)ccc34)c3ccccc3nc2c1", "%", -91.8),
    ("O=C(O)c1ccc(S(=O)(=O)O)cc1", "%", 107),
    ("CSc1[nH]c(=O)ncc1F", "%", 102),
    ("CC(=O)CC(=O)N(C)C", "%", 104),
    ("Nc1nc(N)c2cc(S(=O)(=O)c3cccc(C(F)(F)F)c3)ccc2n1", "%", 48),
    ("O=C(NCc1ccco1)Nc1c(Cl)cc(Cl)cc1Cl", "%", 97.7),
    ("C/C=C/CC(C)C(O)C1C(=O)NC(CC)C(=O)N(C)CC(=O)N(C)C(CC(C)C)C(=O)NC(C(C)C)C(=O)N(C)C(CC(C)C)C(=O)NC(C)C(=O)NC(C)C(=O)N(C)C(CC(C)C)C(=O)N(C)C(CC(C)C)C(=O)N(C)C(C(C)C)C(=O)N1C (stereo not drawn)", "%", 32),
]

---

tested on: U251 CNS; assay: NCI-60 one-dose screen, 48 h (100 = growth as untreated, 0 = no growth, -100 = all killed); conditions: 10 µM
Compounds without any hit were thinned out: in the full panel of roughly 83,000, 20% have a hit.
The entries below are paired with their reported growth.

# compound, study.target, growth [%]
data = [
    ("O=C(CC(=O)c1ccccc1O)c1ccccc1", "U251 CNS", 63.3),
    ("O=c1[nH]n(-c2ccccc2)c(=O)cc1Cl", "U251 CNS", 109),
    ("COC(=O)c1ccccc1Br", "U251 CNS", 106),
    ("O=S(=O)(O)c1ccc(Cl)c(Cl)c1", "U251 CNS", 105),
    ("CN(C)CCN(Cc1ccccc1)c1ccccc1", "U251 CNS", 106),
    ("O=C(CCl)N1CCN(C/C=C/c2ccccc2)CC1", "U251 CNS", 90.7),
    ("CCCCNC1(C#N)CCN(Cc2ccccc2)CC1", "U251 CNS", 101),
    ("C=CCNC(=O)c1ccc(OC)cc1", "U251 CNS", 101),
    ("COc1cc(-c2ccc(NC(=O)NC3CC3)c(OC)c2)ccc1NC(=O)NC1CC1", "U251 CNS", 37.4),
    ("O=C(NCO)c1ccccc1", "U251 CNS", 105),
    ("S=c1sc2ccccc2n1CN1CCCCC1", "U251 CNS", 104),
    ("COc1ccc(-c2cc3c(nn2)-c2ccccc2C3=O)cc1", "U251 CNS", -3.45),
    ("CC(=O)c1ccc(C)c(N)c1", "U251 CNS", 98.4),
    ("C=CC[N+](C)(C)C", "U251 CNS", 101),
    ("CCCCCCCCCCCCCC(=O)Oc1ccc[nH]c1=O", "U251 CNS", 96.3),
    ("COc1cc2c(cc1OC)[C@H](C(=O)O)[C@@H](c1ccc(OC(C)C)c(OC)c1)N(C)C2=O", "U251 CNS", 97.3),
    ("Cc1ccc(Cl)cc1NC(=O)N(C)CCO", "U251 CNS", 102),
    ("NCCCN", "U251 CNS", 95.5),
    ("O=[N+]([O-])c1ccc(Sc2ccncn2)c([N+](=O)[O-])c1", "U251 CNS", 106),
    ("c1cc[n+](C2c3ccccc3C([n+]3ccccc3)c3ccccc32)cc1 (stereo not drawn)", "U251 CNS", 21.5),
    ("O=C(/C=C\\c1ccc(O)cc1)c1ccccc1", "U251 CNS", 80.7),
    ("CN(C)/N=C/c1ccccc1O", "U251 CNS", 95.4),
    ("C/C=C/CC(C)C(O)C1C(=O)NC(CC)C(=O)N(C)CC(=O)N(C)C(CC(C)C)C(=O)NC(C(C)C)C(=O)N(C)C(CC(C)C)C(=O)NC(C)C(=O)NC(C)C(=O)N(C)C(CC(C)C)C(=O)N(C)C(CC(C)C)C(=O)N(C)C(C(C)C)C(=O)N1C (stereo not drawn)", "U251 CNS", 29.7),
    ("O=[N+]([O-])c1cccc(C(F)(F)F)c1", "U251 CNS", 104),
    ("CC(C)CCOC(=O)c1ccccc1", "U251 CNS", 97.5),
    ("Nc1ccc(CC(=O)O)c(N)c1", "U251 CNS", 101),
    ("CCOC(=O)Nc1nn[nH]n1", "U251 CNS", 115),
    ("C[N+](C)(C)C(=O)c1ccccc1", "U251 CNS", 107),
]

---

System: SK-MEL-2 melanoma
Test: NCI-60 one-dose screen, 48 h (100 = growth as untreated, 0 = no growth, -100 = all killed)
Details: 10 µM
Description: Growth inhibition of the SK-MEL-2 human tumor cell line is measured as a screen for anti-cancer activity. Cells are grown in 96 well plates and exposed to the test compound for 48 hours. Compounds are tested at a single concentration, which is 10^-5 M for most compounds. The reported endpoint is percent growth (GI% or GIPRCNT), where numbers from 0 - 100% represent growth inhibition, and numbers from -100% - 0 represent cell death. For example, a value of 40 represents 60% growth inhibition. […]
Compounds without any hit were thinned out: in the full panel of roughly 83,000, 20% have a hit.
Recorded growth values for a group of compounds are listed next.

# compound, growth / %
measured = [
    ("Nc1ccc(N=Nc2ccc(S(=O)(=O)O)cc2)c2ccccc12", 102),
    ("CC(=O)Cc1cc(-c2cc(CC(C)=O)[nH]n2)n[nH]1", 111),
    ("CCC/C=C(\\C)C(C)(C#N)C(=O)OCC (stereo not drawn)", 105),
    ("CCOc1ccccc1/C=N/Nc1nc2ccccc2o1", 91.3),
    ("CCCCC(CC)COC(C)=O (stereo not drawn)", 106),
    ("Cc1cc(N)ccc1-c1ccc(N)cc1C", 86.3),
    ("COc1cccc(O)c1O", 72.4),
    ("O=c1cc(-c2ccccc2)[nH]c(=S)[nH]1", 98.8),
    ("Cc1cc2nc(CC(=O)c3cccc([N+](=O)[O-])c3)c(=O)[nH]c2cc1C", 95.4),
    ("Nc1ncnc2c1nc(N)n2C1OC(CO)C(O)C1O (stereo not drawn)", -11.6),
    ("O=C(O)CCCC(=O)O", 106),
    ("O=C(c1ccc(Cl)cc1)c1ccccc1Cl", 103),
    ("Cc1cc(Cc2cc(C)c(N)cc2N)c(N)cc1N", 96.7),
]
